# Tested target: recombinant human MMP13 catalytic domain (CD) (Homo sapiens, UniProt P45452)
# Construct: catalytic domain (CD) construct encompassing residues 20-274 (SWISS-PROT P45452)
# Run description: MMP-13 catalytic domain FRET enzyme assay
# Run conditions: recombinant human MMP-13 catalytic domain
pIC50: −log10 of the molar value.
Reported metric: pIC50

Solved cases (2 shown):
Compound	Reported metric	Result
CC(=O)N[C@H]1CC[C@H](C2CC(c3cc(C(=O)NCc4ccc(F)c(F)c4)nc(C)n3)=NO2)CC1 (stereo partly shown)	pIC50	7.00 to 8.00
Cc1nc(C(=O)NCc2ccc(F)c(Cl)c2)cc(C2=NO[C@H]([C@H]3CO[C@H](CS(C)(=O)=O)CO3)C2)n1	pIC50	> 8.00

Task item: What does the record list as pIC50 for COc1cc(CNC(=O)c2cc(C3=NOC(c4cccc(C(N)=O)c4)C3)nc(C)n2)ccc1F (stereo not shown) ?
Reply: > 8.00

Task item: What does the record list as pIC50 for COc1cc(CNC(=O)c2cc(C3=NOC(C4CCN(C(=O)CS(C)(=O)=O)CC4)C3)nc(C)n2)ccc1F (stereo not shown) ?
Reply: 7.00 to 8.00

Source of measurements: patent US9029409B2
